This collection of values is drawn from patent US20080033039A1.

# System: L3.6 pancreatic tumor implants
# details: at time of death or sacrifice
# maps each entry to its Mean Body Weight (g) (Time of Death or Sacrifice)
Numeric answer only, unit g assumed.

* O=C1[O][Pt]2([NH][C@@H]3CCCC[C@H]3[NH]2)[O]C1=O | 15.6

[ask] Identify the reported Mean Body Weight (g) (Time of Death or Sacrifice) for the following entry. CC(=O)O[C@H]1C(=O)[C@@]2(C)[C@H]([C@H](OC(=O)c3ccccc3)[C@]3(O)C[C@H](OC(=O)[C@H](O)[C@@H](NC(=O)c4ccccc4)c4ccccc4)C(C)=C1C3(C)C)[C@]1(OC(C)=O)CO[C@@H]1C[C@@H]2O
[reply] 17.4

[ask] Query Mean Body Weight (g) (Time of Death or Sacrifice) for CCCCCCCCCCCCC/C=C/[C@@H](O)[C@H](CO)NC(=O)CCCCC [Ceramide, N-hexanoyl-D-sphingosine]
[reply] 17.0

[ask] Give the value of Mean Body Weight (g) (Time of Death or Sacrifice) reported for the following: N.N.[Cl][Pt][Cl] [Cisplatin]
[reply] 16.6

###

Examples of compounds with documented % Survival @ 3 Weeks follow.
# Tested on: L3.6 pancreatic tumor implants
# details: 3 weeks
A number alone suffices; assume %.

These recorded examples may help you get a feel for the data.
* CCCCCCCCCCCCC/C=C/[C@@H](O)[C@H](CO)NC(=O)CCCCC [Ceramide, N-hexanoyl-D-sphingosine] | 40
* CC(=O)O[C@H]1C(=O)[C@@]2(C)[C@H]([C@H](OC(=O)c3ccccc3)[C@]3(O)C[C@H](OC(=O)[C@H](O)[C@@H](NC(=O)c4ccccc4)c4ccccc4)C(C)=C1C3(C)C)[C@]1(OC(C)=O)CO[C@@H]1C[C@@H]2O [Taxol, Paclitaxel] | 60
* N.N.[Cl][Pt][Cl] [Cisplatin] | 60

Continue with the compound presented below.
[ask] Determine reported % Survival @ 3 Weeks for O=C1[O][Pt]2([NH][C@@H]3CCCC[C@H]3[NH]2)[O]C1=O [Oxaliplatin] ; test system: L3.6 pancreatic tumor implants.
[reply] 100
